Data origin: patent US3963758A

- measurement notes: Acute toxicity, oral, mice
- assay context: mouse, in vivo, fasting mice, 14 days observation
recorded metric: LD50 at 336 h

**Q:** Query: LD50 at 336 h; subject: CC(C(=O)O)c1cccc(C(=O)c2cc3ccccc3o2)c1 (racemic) [Example 1]
**A:** 2500 mg/kg

----------
- measurement notes: Acute toxicity, oral, rats
- assay context: rat, in vivo, fasting rats, 14 days observation
recorded metric: LD50 at 336 h (mg/kg)
Number in mg/kg, nothing else.

**Q:** Recorded LD50 at 336 h for CC(C(=O)O)c1cccc(C(=O)c2cc3ccccc3o2)c1 (racemic) , please?
**A:** 1300
